The origin of these recorded values is patent US6355799B1.

# Tested on: barnyardgrass (Echinochloa crus-galli, ECHCG)
# ASSAY REMARKS: Post-emerge test, greenhouse herbicide activity screening
# Format: in vivo
# CONDITION DETAILS: Rate 63 g ai/ha; rating scale 0-100 (0 no damage, 100 complete death); 14 days after application
RECORDED METRIC: Post-emerge Herbicidal Activity, phytotoxicity rating ECHCG
Reply: number alone, nothing else.

Any idea what its Post-emerge Herbicidal Activity, phytotoxicity rating ECHCG is? The compound is CCOC(=O)C(Cl)Cc1c(OC)c(Cl)cc(F)c1-n1c(=O)cc(C(F)(F)F)n(C)c1=O (single isomer, unassigned) [Compound 14-5]
40

// Post-emerge Herbicidal Activity, phytotoxicity rating ECHCG lookup, key: CCOC(=O)C(Br)Cc1c(OC)c(Cl)cc(F)c1-n1c(=O)cc(C(F)(F)F)n(C)c1=O (single isomer, unassigned) [14-32]
100

Bench note: what Post-emerge Herbicidal Activity, phytotoxicity rating ECHCG did COc1c(Cl)cc(F)c(-n2c(=O)cc(C(F)(F)F)n(C)c2=O)c1CC(Cl)C(=O)OC(C)(C)C (stereo not shown) [14-18] show?
99

Give its Post-emerge Herbicidal Activity, phytotoxicity rating ECHCG value. Item: CCCOC(=O)C(Cl)Cc1c(OC)c(Cl)cc(F)c1-n1c(=O)cc(C(F)(F)F)n(C)c1=O (single isomer, unassigned) [14-7]
100

Recorded Post-emerge Herbicidal Activity, phytotoxicity rating ECHCG of COc1c(Cl)cc(F)c(-n2c(=O)cc(C(F)(F)F)n(C)c2=O)c1CC(Cl)C(=O)OCC(C)C (single isomer, unassigned) [14-14] , please.
100

Using the record for C#CCOC(=O)C(Cl)Cc1c(OC)c(Cl)cc(F)c1-n1c(=O)cc(C(F)(F)F)n(C)c1=O (single isomer, unassigned) [14-19] , report its Post-emerge Herbicidal Activity, phytotoxicity rating ECHCG.
100

Item under review: CCOC(=O)C(Cl)Cc1cc(Cl)cc(F)c1-n1nc(C)n(C(F)F)c1=O (stereo not shown) [14-52] . Reported Post-emerge Herbicidal Activity, phytotoxicity rating ECHCG?
0
